assay: Volume of distribution in Beagle dog at 0.25 mg/kg, iv; assay type: ADME, organism-based, Canis lupus familiaris; set-up: dose 0.25 mg/kg, route intravenous; settings: in vivo
Assay metric: Vd (L/kg)

1. C[C@@H](NC(=O)[C@@](C)(O)C(F)(F)F)c1ncc(-c2cc(Cl)cc(F)c2-c2nnn(C)n2)cc1Cl
2. C[C@@H](NC(=O)[C@@](C)(O)C(F)(F)F)c1ncc(-c2cc(Cl)cc(F)c2-c2nnn(C)n2)cc1F
Prompt: Identify the entry with the smaller Vd: 1 or 2 . In your reply, give the label of the chosen option.
Completion: 2

a. Cc1noc(-c2c(F)cc(Cl)cc2-c2cnc([C@@H](C)NC(=O)[C@@](C)(O)C(F)(F)F)c(F)c2)n1
b. Cc1noc(-c2c(Cl)cc(Cl)cc2-c2cnc([C@@H](C)NC(=O)[C@@](C)(O)C(F)(F)F)c(F)c2)n1
Prompt: Which entry has a larger number for Vd, a or b ? In your reply, give the label of the chosen option.
Completion: a

A. COC(=O)c1c(F)cccc1-c1ccc(CNC(=O)[C@@](C)(O)C(F)(F)F)c(F)c1
B. Cc1nc(-c2c(F)cc(Cl)cc2-c2cnc([C@@H](C)NC(=O)[C@@](C)(O)C(F)(F)F)c(F)c2)no1
Prompt: Identify the entry with the smaller Vd: A or B . In your reply, give the label of the chosen option.
Completion: B
(B: 0.51 L/kg, A: 1.2 L/kg)

----------
biological target: Cytochrome P450 2D6 (Homo sapiens)
Sequence (P10635 whole entry): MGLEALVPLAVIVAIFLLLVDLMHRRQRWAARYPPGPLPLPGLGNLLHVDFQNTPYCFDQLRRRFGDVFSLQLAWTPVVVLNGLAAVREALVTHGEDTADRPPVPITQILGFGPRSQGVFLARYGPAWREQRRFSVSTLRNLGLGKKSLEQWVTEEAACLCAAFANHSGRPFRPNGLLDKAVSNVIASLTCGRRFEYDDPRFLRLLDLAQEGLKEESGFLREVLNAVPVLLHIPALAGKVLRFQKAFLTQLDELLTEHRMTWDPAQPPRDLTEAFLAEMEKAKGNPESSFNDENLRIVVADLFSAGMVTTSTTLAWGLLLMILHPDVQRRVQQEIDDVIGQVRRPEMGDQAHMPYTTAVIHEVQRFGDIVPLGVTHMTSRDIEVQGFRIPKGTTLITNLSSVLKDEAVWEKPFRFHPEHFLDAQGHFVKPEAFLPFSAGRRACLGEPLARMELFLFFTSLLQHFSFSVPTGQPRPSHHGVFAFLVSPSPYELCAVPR
pIC50: −log10 of the molar value.
Assay metric: pIC50

Prompt: Please report the recorded pIC50 for "C[C@@H](NC(=O)[C@@](C)(O)C(F)(F)F)c1ncc(-c2cc(Cl)cc(F)c2-c2nnn(C)n2)cc1F" .
Completion: < 5.00

----------
test: Half life in rhesus monkey at 1 mg/kg, po or 1 mg/kg, iv; format: ADME, organism-based, Macaca mulatta; details: in vivo
Assay metric: half-life (h)
Respond numerically; units are h and should not be typed.

Prompt: Please report the recorded half-life for "Cc1nc(-c2c(F)cc(Cl)cc2-c2cnc([C@@H](C)NC(=O)[C@@](C)(O)C(F)(F)F)c(F)c2)no1" .
Completion: 1.3

----------
test: Half life in Sprague-Dawley rat at 10 mg/kg, po or 2 mg/kg, iv; type: ADME, organism-based; conditions: in vivo
Assay metric: half-life (h)

1. C[C@@H](NC(=O)[C@@](C)(O)C(F)(F)F)c1ncc(-c2cc(Cl)cc(F)c2-c2nnn(C)n2)cc1F
2. Cc1noc(-c2c(F)cc(Cl)cc2-c2cnc([C@@H](C)NC(=O)[C@@](C)(O)C(F)(F)F)c(F)c2)n1
Prompt: Identify the entry with the smaller half-life: 1 or 2 . In your reply, give the label of the chosen option.
Completion: 2
(2: 1.2 h, 1: 27 h)

A. Cc1nc(-c2c(F)cc(Cl)cc2-c2cnc([C@@H](C)NC(=O)[C@@](C)(O)C(F)(F)F)c(F)c2)no1
B. COC(=O)c1c(Cl)cc(Cl)cc1-c1cnc([C@@H](C)NC(=O)[C@@](C)(O)C(F)(F)F)c(F)c1
C. Cc1noc(-c2c(Cl)cc(Cl)cc2-c2cnc([C@@H](C)NC(=O)[C@@](C)(O)C(F)(F)F)c(F)c2)n1
Prompt: Descending sort on half-life required. Hello, could you send the labels back in the order asked? Thank you.
Completion: B, C, A

----------
assay: Volume of distribution in Sprague-Dawley rat at 10 mg/kg, po or 2 mg/kg, iv; type: ADME, organism-based; settings: in vivo, read-out: Vdss
Assay metric: Vd (L/kg)

# annotated cases, reported Vd shown
C[C@@H](NC(=O)[C@@](C)(O)C(F)(F)F)c1ncc(-c2cc(Cl)cc(F)c2-c2nnn(C)n2)cc1Cl ... 0.86
Cc1noc(-c2c(Cl)cc(Cl)cc2-c2cnc([C@@H](C)NC(=O)[C@@](C)(O)C(F)(F)F)c(F)c2)n1 ... 1
Cc1nc(-c2c(F)cc(Cl)cc2-c2cnc([C@@H](C)NC(=O)[C@@](C)(O)C(F)(F)F)c(F)c2)no1 ... 0.52
COC(=O)c1c(Cl)cc(Cl)cc1-c1cnc([C@@H](C)NC(=O)[C@@](C)(O)C(F)(F)F)c(F)c1 ... 1.2

I. C[C@@H](NC(=O)[C@@](C)(O)C(F)(F)F)c1ncc(-c2cc(Cl)cc(F)c2-c2nnn(C)n2)cc1F
II. Cc1noc(-c2c(F)cc(Cl)cc2-c2cnc([C@@H](C)NC(=O)[C@@](C)(O)C(F)(F)F)c(F)c2)n1
Prompt: Which entry has a larger number for Vd, I or II ? In your reply, give the label of the chosen option.
Completion: II
(II: 1.3 L/kg, I: 0.54 L/kg)

----------
experiment: Oral bioavailability in Sprague-Dawley rat at 10 mg/kg; assay type: ADME, organism-based; details: in vivo
Assay metric: bioavailability (%)

# annotated cases, reported bioavailability shown
C[C@@H](NC(=O)[C@@](C)(O)C(F)(F)F)c1ncc(-c2cc(Cl)cc(F)c2-c2nnn(C)n2)cc1F ... 53
Cc1noc(-c2c(F)cc(Cl)cc2-c2cnc([C@@H](C)NC(=O)[C@@](C)(O)C(F)(F)F)c(F)c2)n1 ... 32
C[C@@H](NC(=O)[C@@](C)(O)C(F)(F)F)c1ncc(-c2cc(Cl)cc(F)c2-c2nnn(C)n2)cc1Cl ... 71

A. Cc1noc(-c2c(Cl)cc(Cl)cc2-c2cnc([C@@H](C)NC(=O)[C@@](C)(O)C(F)(F)F)c(F)c2)n1
B. COC(=O)c1c(Cl)cc(Cl)cc1-c1cnc([C@@H](C)NC(=O)[C@@](C)(O)C(F)(F)F)c(F)c1
Prompt: Which entry has a larger number for bioavailability, A or B ? In your reply, give the label of the chosen option.
Completion: B

----------
target: B1 bradykinin receptor (Homo sapiens, UniProt P46663); assay: Binding affinity to human bradykinin B1 receptor expressed in CHO cells; assay type: cell-based
Sequence (P46663 whole entry): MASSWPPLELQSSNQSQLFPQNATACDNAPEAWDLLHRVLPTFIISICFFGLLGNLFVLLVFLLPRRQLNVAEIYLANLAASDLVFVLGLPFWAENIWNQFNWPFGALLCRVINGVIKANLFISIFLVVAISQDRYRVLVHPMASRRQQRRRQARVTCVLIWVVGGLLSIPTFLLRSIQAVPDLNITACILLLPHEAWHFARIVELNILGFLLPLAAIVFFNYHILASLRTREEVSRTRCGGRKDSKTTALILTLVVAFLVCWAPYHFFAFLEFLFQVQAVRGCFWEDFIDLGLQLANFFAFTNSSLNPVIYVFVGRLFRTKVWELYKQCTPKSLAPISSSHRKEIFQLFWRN
pKi: −log10 of the molar value.
Assay metric: pKi

# annotated cases, reported pKi shown
CCC(O)(CC)C(=O)NCc1ccc(-c2cccc(F)c2C(=O)OC)cc1F ... 5.96
COC(=O)c1c(F)cccc1-c1ccc(CNC(=O)C(O)(C(F)(F)F)C(F)(F)F)c(F)c1 ... 7.02
COC(=O)c1c(F)cccc1-c1ccc(CNC(=O)[C@@](C)(O)C(F)(F)F)c(F)c1 ... 7.61

a. COC(=O)c1c(F)cccc1-c1ccc(CNC(=O)C2(O)CC2)c(F)c1
b. COC(=O)c1c(F)cccc1-c1ccc(CNC(=O)[C@H](C)O)c(F)c1
Prompt: Identify the entry with the smaller pKi: a or b . In your reply, give the label of the chosen option.
Completion: b

----------
experiment: Clearance in Sprague-Dawley rat at 10 mg/kg, po or 2 mg/kg, iv; format: ADME, organism-based; conditions: in vivo
Assay metric: clearance (mL/min/kg)

Cc1nc(-c2c(F)cc(Cl)cc2-c2cnc([C@@H](C)NC(=O)[C@@](C)(O)C(F)(F)F)c(F)c2)no1 ... 4.9
Cc1noc(-c2c(Cl)cc(Cl)cc2-c2cnc([C@@H](C)NC(=O)[C@@](C)(O)C(F)(F)F)c(F)c2)n1 ... 20

P. Cc1noc(-c2c(F)cc(Cl)cc2-c2cnc([C@@H](C)NC(=O)[C@@](C)(O)C(F)(F)F)c(F)c2)n1
Q. C[C@@H](NC(=O)[C@@](C)(O)C(F)(F)F)c1ncc(-c2cc(Cl)cc(F)c2-c2nnn(C)n2)cc1F
R. COC(=O)c1c(Cl)cc(Cl)cc1-c1cnc([C@@H](C)NC(=O)[C@@](C)(O)C(F)(F)F)c(F)c1
S. C[C@@H](NC(=O)[C@@](C)(O)C(F)(F)F)c1ncc(-c2cc(Cl)cc(F)c2-c2nnn(C)n2)cc1Cl
Prompt: Descending sort on clearance required. Hello, could you send the labels back in the order asked? Thank you.
Completion: P, R, S, Q
(P: 22 mL/min/kg, R: 7.8 mL/min/kg, S: 2.4 mL/min/kg, Q: 1 mL/min/kg)

----------
test: Apparent permeability across pig LLC-PK1 cells; assay type: ADME, cell-based, Sus scrofa
Assay metric: Papp (×10⁻⁶ cm/s)

# annotated cases, reported Papp shown
Cc1noc(-c2c(Cl)cc(Cl)cc2-c2cnc([C@@H](C)NC(=O)[C@@](C)(O)C(F)(F)F)c(F)c2)n1 ... 33
Cc1noc(-c2c(F)cc(Cl)cc2-c2cnc([C@@H](C)NC(=O)[C@@](C)(O)C(F)(F)F)c(F)c2)n1 ... 35
Cc1nc(-c2c(F)cc(Cl)cc2-c2cnc([C@@H](C)NC(=O)[C@@](C)(O)C(F)(F)F)c(F)c2)no1 ... 27
C[C@@H](NC(=O)[C@@](C)(O)C(F)(F)F)c1ncc(-c2cc(Cl)cc(F)c2-c2nnn(C)n2)cc1Cl ... 26
COC(=O)c1c(F)cccc1-c1ccc(CNC(=O)[C@@](C)(O)C(F)(F)F)c(F)c1 ... 32

A. C[C@@H](NC(=O)[C@@](C)(O)C(F)(F)F)c1ncc(-c2cc(Cl)cc(F)c2-c2nnn(C)n2)cc1F
B. COC(=O)c1c(Cl)cc(Cl)cc1-c1cnc([C@@H](C)NC(=O)[C@@](C)(O)C(F)(F)F)c(F)c1
Prompt: Which entry has a larger number for Papp, A or B ? In your reply, give the label of the chosen option.
Completion: A
